Give measured EC50 for each item. Keep answers brief.
Molecular target: nuclear receptor TLX (NR2E1) ligand-binding domain (Homo sapiens (Human), UniProt Q9Y466)
Sequence (Q9Y466 155-383): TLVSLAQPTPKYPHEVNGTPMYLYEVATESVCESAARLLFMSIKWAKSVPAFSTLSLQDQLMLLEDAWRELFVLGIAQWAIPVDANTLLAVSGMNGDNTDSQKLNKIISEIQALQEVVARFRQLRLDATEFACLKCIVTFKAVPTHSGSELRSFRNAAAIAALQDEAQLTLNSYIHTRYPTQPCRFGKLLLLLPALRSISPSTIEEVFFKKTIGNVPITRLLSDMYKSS
Test: AlphaScreen assay detecting TLX-RIP140 NR box peptide interaction
Settings: his-tagged TLX LBD, biotinylated RIP140-L6 peptide recruitment
One number for each entry, in nM.

Molecule: CCCC/C=C(/C)C/C(C)=C/[C@@H](C)CCCCCCCC(=O)O
Measurement type: EC50
Scale unit: nM
Assay result: 3000
//
Molecule: CCCCCCCCCC/C=C(/C)C/C(C)=C/[C@@H](C)CC(=O)O
Measurement type: EC50
Scale unit: nM
Assay result: 2400

Continue with the next molecule.
// query EC50 value for entry CCCCCCCC/C=C\CCCCCCCC(=O)O [Oleic Acid, oleic acid, reference compound]
3600
